Target: hNaV1.5 (Homo sapiens, UniProt Q14524)
Sequence (Q14524 whole entry): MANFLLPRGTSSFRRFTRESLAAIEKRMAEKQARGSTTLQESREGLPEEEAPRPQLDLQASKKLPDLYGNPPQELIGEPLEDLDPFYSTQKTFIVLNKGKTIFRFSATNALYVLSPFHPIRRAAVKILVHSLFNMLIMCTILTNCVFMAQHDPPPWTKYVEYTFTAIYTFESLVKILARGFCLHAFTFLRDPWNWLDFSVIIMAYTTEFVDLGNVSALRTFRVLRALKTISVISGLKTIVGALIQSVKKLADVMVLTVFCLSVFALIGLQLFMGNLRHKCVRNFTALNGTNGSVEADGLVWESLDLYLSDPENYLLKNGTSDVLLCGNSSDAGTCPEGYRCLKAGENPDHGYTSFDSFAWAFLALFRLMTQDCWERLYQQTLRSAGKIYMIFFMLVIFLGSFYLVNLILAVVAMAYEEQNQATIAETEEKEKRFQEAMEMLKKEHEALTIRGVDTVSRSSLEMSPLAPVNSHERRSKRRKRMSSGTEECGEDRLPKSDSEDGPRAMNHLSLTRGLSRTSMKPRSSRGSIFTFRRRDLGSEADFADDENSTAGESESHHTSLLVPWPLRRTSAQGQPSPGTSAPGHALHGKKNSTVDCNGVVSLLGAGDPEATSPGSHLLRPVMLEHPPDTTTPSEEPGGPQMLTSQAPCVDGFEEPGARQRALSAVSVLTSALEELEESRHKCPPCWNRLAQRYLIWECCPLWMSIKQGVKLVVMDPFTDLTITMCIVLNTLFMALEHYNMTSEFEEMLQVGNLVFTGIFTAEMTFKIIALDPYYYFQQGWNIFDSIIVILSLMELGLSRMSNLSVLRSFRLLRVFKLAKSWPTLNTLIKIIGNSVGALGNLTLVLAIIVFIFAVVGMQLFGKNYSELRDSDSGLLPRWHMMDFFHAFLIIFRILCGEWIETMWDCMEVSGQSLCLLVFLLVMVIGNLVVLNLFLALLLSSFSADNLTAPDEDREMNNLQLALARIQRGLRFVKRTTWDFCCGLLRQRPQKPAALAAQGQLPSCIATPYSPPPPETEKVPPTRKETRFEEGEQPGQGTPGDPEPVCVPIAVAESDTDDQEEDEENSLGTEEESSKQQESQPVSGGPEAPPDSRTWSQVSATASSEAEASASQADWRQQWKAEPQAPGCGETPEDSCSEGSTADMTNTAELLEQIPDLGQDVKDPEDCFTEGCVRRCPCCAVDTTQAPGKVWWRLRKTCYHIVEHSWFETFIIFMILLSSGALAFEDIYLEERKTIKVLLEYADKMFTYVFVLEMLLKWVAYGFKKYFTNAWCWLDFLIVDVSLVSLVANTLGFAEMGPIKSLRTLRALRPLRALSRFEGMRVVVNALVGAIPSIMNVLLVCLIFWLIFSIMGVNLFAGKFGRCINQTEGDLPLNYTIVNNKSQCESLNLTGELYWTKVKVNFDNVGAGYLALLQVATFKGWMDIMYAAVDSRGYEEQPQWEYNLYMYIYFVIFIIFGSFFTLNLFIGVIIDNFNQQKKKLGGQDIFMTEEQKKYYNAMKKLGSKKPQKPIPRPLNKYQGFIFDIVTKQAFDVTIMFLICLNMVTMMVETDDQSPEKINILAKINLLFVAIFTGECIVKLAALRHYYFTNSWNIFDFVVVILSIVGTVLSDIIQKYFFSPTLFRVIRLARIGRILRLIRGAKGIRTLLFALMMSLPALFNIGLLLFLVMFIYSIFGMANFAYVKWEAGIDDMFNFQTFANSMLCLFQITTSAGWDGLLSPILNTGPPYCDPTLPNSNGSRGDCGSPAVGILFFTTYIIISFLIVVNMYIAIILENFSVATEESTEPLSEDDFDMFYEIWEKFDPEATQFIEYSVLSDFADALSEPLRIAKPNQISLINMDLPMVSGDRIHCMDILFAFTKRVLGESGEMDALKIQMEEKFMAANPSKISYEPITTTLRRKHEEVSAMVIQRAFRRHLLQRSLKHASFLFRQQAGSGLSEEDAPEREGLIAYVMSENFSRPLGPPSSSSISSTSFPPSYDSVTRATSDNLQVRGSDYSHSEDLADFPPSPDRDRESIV
Assay: Two-electrode voltage-clamp on Xenopus laevis oocytes expressing NaV1.5
Where a SMILES comes first, the peptide text is derived from it. Bridges are numbered along the chain shown (N, C = ends).
recorded metric: pIC50
Please note pIC50 is a logarithmic value: minus log10 of concentration in mol/L. Answer with that number alone.

// solved cases for pIC50 follow
C[C@@H]1NC(=O)[C@H](Cc2c[nH]c3ccccc23)NC(=O)[C@H](CCCNC(=N)N)NC(=O)[C@H](CCCNC(=N)N)NC(=O)[C@@H](N)CSSC[C@@H](C(N)=O)NC(=O)[C@H](CCCNC(=N)N)NC(=O)[C@H](CC(N)=O)NC(=O)[C@H](Cc2c[nH]c3ccccc23)NC(=O)[C@H](CCCCN)NC1=O [PnCS1[R6K], CRRWAKWNRC ^*] (H-CRRWAKWNRC-NH2; disulfide 1-10) :: 5.48
C[C@@H]1NC(=O)[C@H](C)NC(=O)[C@H](Cc2c[nH]c3ccccc23)NC(=O)[C@H](CCCNC(=N)N)NC(=O)[C@H](CCCNC(=N)N)NC(=O)[C@@H](N)CSSC[C@@H](C(N)=O)NC(=O)[C@H](CCCNC(=N)N)NC(=O)[C@H](CC(N)=O)NC(=O)[C@H](Cc2c[nH]c3ccccc23)NC1=O [PnCS1[R6A], CRRWAAWNRC ^*] (H-CRRWAAWNRC-NH2; disulfide 1-10) :: 5.12

Q: Test system hNaV1.5 (Homo sapiens, UniProt Q14524); read-out pIC50; what value for C[C@@H]1NC(=O)[C@H](Cc2c[nH]c3ccccc23)NC(=O)[C@H](CCCNC(=N)N)NC(=O)[C@H](C)NC(=O)[C@@H](N)CSSC[C@@H](C(N)=O)NC(=O)[C@H](CCCNC(=N)N)NC(=O)[C@H](CC(N)=O)NC(=O)[C@H](Cc2c[nH]c3ccccc23)NC(=O)[C@H](CCCNC(=N)N)NC1=O [PnCS1[R2A], CARWARWNRC ^*] (H-CARWARWNRC-NH2; disulfide 1-10) ?
Result: 5.77

Q: Please answer likewise for C[C@@H]1NC(=O)[C@H](Cc2c[nH]c3ccccc23)NC(=O)[C@H](CCCNC(=N)N)NC(=O)[C@H](CCCNC(=N)N)NC(=O)[C@@H](N)CSSC[C@@H](C(N)=O)NC(=O)[C@H](CCCNC(=N)N)NC(=O)[C@H](CCCCN)NC(=O)[C@H](Cc2c[nH]c3ccccc23)NC(=O)[C@H](CCCNC(=N)N)NC1=O [PnCS1[N8K], CRRWARWKRC ^*] (H-CRRWARWKRC-NH2; disulfide 1-10)
Result: 5.55

Hey, just so you know, these numbers are from paper PMC9116130.
